I'd be grateful if you could share measured growth for these entries.
Tested on: PC-3 prostate
Test: NCI-60 one-dose screen, 48 h (100 = growth as untreated, 0 = no growth, -100 = all killed)
Conditions: 10 µM
Method: Growth inhibition of the PC-3 human tumor cell line is measured as a screen for anti-cancer activity. Cells are grown in 96 well plates and exposed to the test compound for 48 hours. Compounds are tested at a single concentration, which is 10^-5 M for most compounds. The reported endpoint is percent growth (GI% or GIPRCNT), where numbers from 0 - 100% represent growth inhibition, and numbers from -100% - 0 represent cell death. For example, a value of 40 represents 60% growth inhibition. […]
The panel holds about 83,000 compounds, 20% with a hit somewhere; the sample as a whole holds those more often. Active and inactive are the calls of the source. The calls were made as follows: active = growth percent below 10; inactive = the rest.

Recorded results for 2 compounds are shown here.
1) O=C(/C=C/c1ccc(Cl)cc1Cl)c1nc2ccccc2n1Cc1ccc(F)cc1 29.4% (inactive)
2) C[C@H]1[C@H](OC(=O)CCC(=O)N(CCCc2cn(-c3ccc(CN4CCOCC4)cc3)nn2)CCNc2ccnc3cc(Cl)ccc23)O[C@@H]2OC3(C)CC[C@H]4[C@H](C)CC[C@@H]1[C@@]24OO3 29.2% (inactive)

Moving on to the next compound.
q: GET /values?readout=growth&item= `C[C@H]1[C@@H](Oc2ccc(-c3cn(-c4ccnc5cc(Cl)ccc45)nn3)cc2)O[C@@H]2OC3(C)CC[C@H]4[C@H](C)CC[C@@H]1[C@@]24OO3`
a: 29.2% (inactive)

* * *

System: MDA-MB-468 breast
Experiment: NCI-60 one-dose screen, 48 h (100 = growth as untreated, 0 = no growth, -100 = all killed)
Conditions: 10 µM unless noted
Method: Growth inhibition of the MDA-MB-468 human Breast tumor cell line is measured as a screen for anti-cancer activity. Cells are grown in 96 well plates and exposed to the test compound for 48 hours. Compounds are tested at a single concentration, which is 10^-5 M for most compounds. The reported endpoint is percent growth (GI% or GIPRCNT), where numbers from 0 - 100% represent growth inhibition, and numbers from -100% - 0 represent cell death. […]
Compounds without any hit were thinned out: in the full panel of roughly 83,000, 20% have a hit.
reportedMetric: growth (%)
Give bare numbers, in %.

Recorded results for 5 compounds are shown here.
compound	testedOn	dataValue
N#CCCc1ccccc1	MDA-MB-468 breast	101
CC1(CF)NC(=O)NC1=O (centres undefined)	MDA-MB-468 breast	113
c1ccc(COc2ccc3[nH]cc(CCN(Cc4ccccc4)Cc4ccccc4)c3c2)cc1	MDA-MB-468 breast	87.9
COc1cc(C2CC(=O)Nc3nc(N)[se]c32)c(OC)c2c1OCO2 (centres undefined)	MDA-MB-468 breast	109
COC(=O)[C@@]1(C)CC[C@]2(C)CC[C@]3(C)C4=CC=C5C(=CC(=O)C(O)=C5C)[C@]4(C)CC[C@@]3(C)[C@@H]2C1	MDA-MB-468 breast	-66.9

Need growth for each of these compounds.
1. COc1ccccc1/C=C/[N+](=O)[O-]
2. CC(=O)Cc1ccc2c(c1)OCO2
3. CSc1cc(/C=C(\C)[C@@H]2C[C@@H]3O[C@]3(C)CCC[C@H](C)[C@H](O)[C@@H](C)C(=O)C(C)(C)[C@@H](O)CC(=O)O2)n(CCNC(=O)OC(C)(C)C)n1
4. C#CCCCN(CCNc1ccnc2cc(Cl)ccc12)C(=O)CCC(=O)O[C@@H]1O[C@@H]2OC3(C)CC[C@H]4[C@H](C)CC[C@@H]([C@H]1C)[C@@]24OO3

a:
1: 22.6; 2: 103; 3: 66; 4: -3.36

Need growth for each of these compounds.
1. S=P(Nc1ccccc1)(Nc1ccccc1)c1ccccc1
2. Clc1ccc(SSC(Cl)(Cl)Cl)cc1
3. O=C(O)c1[nH]c(=O)[nH]c(=O)c1F
4. O=C(CC1(O)C(=O)Nc2ccc(Br)cc21)c1ccc(C(=O)NCC2CCC3(CC2)OOC2(CCCCC2)OO3)cc1 (centres undefined)
5. CC(C)(C)NCC(O)c1ccccc1Cl (centres undefined)

a:
[127, 104, 107, 48.7, -12.6]

* * *

System: U251 CNS
Experiment: NCI-60 one-dose screen, 48 h (100 = growth as untreated, 0 = no growth, -100 = all killed)
Conditions: 10 µM
This is part of a sample that, as a whole, favours compounds with a hit. Of some 83,000 tested, about 20% had one in any assay.
reportedMetric: growth (%)
One number for each entry, in %.

Recorded results for 2 compounds are shown here.
1) CC[C@]12C=CCN3CC[C@@]4(c5ccc(OC)cc5N(C)[C@H]4[C@@](O)(C(=O)OC)[C@@H]1OC(=O)CCC[P+](c1ccc(F)cc1)(c1ccc(F)cc1)c1ccc(F)cc1)[C@@H]32 18.5
2) O=C(/C=C/c1ccccc1)c1nc2ccccc2n1Cc1ccc(F)cc1 -73.6

Need growth for each of these compounds.
1. COc1cc2cc(C(=O)N3C[C@@H](CCl)c4c3cc(OC(=O)N3CCN(C)[C@@H]5CSSC[C@H]53)c3ccccc43)[nH]c2c(OC)c1OC
2. O=C(/C=C/c1ccc(Cl)cc1)c1nc2ccccc2n1Cc1ccc(Br)cc1

a:
-14.6
34.4

* * *

System: MDA-MB-468 breast
Assay: NCI-60 one-dose screen, 48 h
Settings: 10 µM unless noted
The panel holds about 83,000 compounds, 20% with a hit somewhere; the sample as a whole holds those more often. Active and inactive are the calls of the source. The calls were made as follows: active = growth percent below 10; inactive = the rest.
API: response.call in true for active, false for inactive

q: What did this assay record as the result for NC(=O)C(Br)c1ccccc1 (configuration not stated) ?
a: false

q: What did this assay record as the result for COC1CC2c3ccccc3C1C(C)=[N+]2C (configuration not stated) ?
a: false

* * *

System: HL-60(TB) leukemia
Assay: NCI-60 one-dose screen, 48 h (100 = growth as untreated, 0 = no growth, -100 = all killed)
Conditions: 10 µM unless noted
Compounds without any hit were thinned out: in the full panel of roughly 83,000, 20% have a hit.
reportedMetric: growth (%)
Answers are plain numbers, in %.

Recorded results for 5 molecules are shown here.
molecule	dataValue
O=C1/C(=C/C=C/c2ccco2)SC(=S)N1CC(=S)C1C=CS(=O)(=O)C1 (stereo not given)	59.4
COc1cc2c(cc1OC)CN(CCCCOc1cc(O)c3c(=O)cc(-c4ccccc4)oc3c1)CC2	7.79
O=C1CCC(N2C(=O)c3cccc(NCCOCCOCCOCCC(=O)NCCCC(=O)NC(c4ccc5c(c4)OCO5)c4cc(Cl)c5cccnc5c4O)c3C2=O)C(=O)C1 (stereo not given)	-14.1
O=C(CNc1nc(-c2ccccc2)cs1)Nc1ccccc1	-30.5
COc1cc2c(c(OC)c1OC)C(=O)CC(c1cccc(NC(=O)c3cc(NC(=O)[C@H](CO)NC(=O)OC(C)(C)C)ccc3Cl)c1)O2 (stereo not given in full)	36.6

Need growth for each of these molecules.
1. N#Cc1ccc(-c2nn(-c3ccc(C(=O)O)cc3)cc2CNc2cc(Cl)cc(Cl)c2)cc1
2. Nc1cccnc1/C=N/NC(=S)NCCNC(=O)c1ccc(-n2nc(-c3ccccc3O)nc2-c2ccccc2O)cc1
3. c1n[nH]cc1-c1nc2ccc3[nH]ncc3c2c2c1CC1(CC2)COC1
4. COc1ccc(-c2ccc(SCC(=O)NCCc3ccc(S(N)(=O)=O)cc3)nn2)cc1
5. Clc1ccc(-c2nc3ccc(-c4nnc(SCc5ccccc5)o4)cc3[nH]2)cc1
6. CC(C)(C)C(=O)c1c2c(c3ccc4c5ccccc5ccc4n13)C(=O)c1ccccc1C2=O
7. CC(=O)Nc1ccc(-c2cn(-c3cccc(C(=O)Nc4ccc(F)c(C(F)(F)F)c4)c3)nn2)cn1
8. Fc1ccc(-c2csc(Nc3cccc(Nc4nc(-c5ccc(F)cc5)cs4)c3)n2)cc1

a:
[29.5, -8.62, 29.1, 60.5, 51.8, 94.2, 62.8, 74.3]

Need growth for each of these molecules.
1. CC1=C(C(=O)c2ccccc2)C(c2cccc(Cl)c2Cl)n2c(nc3ccccc32)N1 (stereo not given)
2. CCCCSc1nc(Nc2ccc(/C(C)=N/NC(N)=S)cc2)c(C#N)c(-c2ccc(OC)cc2)n1

a:
[36.1, 92.2]

* * *

Tested on: NCI-H522 lung
Experiment: NCI-60 one-dose screen, 48 h
Settings: 10 µM
This is part of a sample that, as a whole, favours compounds with a hit. Of some 83,000 tested, about 20% had one in any assay. Active and inactive are the calls of the source. How the source made its calls: active means growth percent below 10; inactive means the rest.
API: response.call in class 1 (active), class 0 (inactive)

1) O=C(NC([Se])=NC1CCCCC1)c1ccc2c(c1)OCO2 class 0

q: What did this assay record as the result for `CC1=C2C(=C[C@@](C)(COP(=O)(Oc3ccccc3)Oc3ccccc3)[C@@H]2O)C(=O)[C@@](C)(O)C12CC2` ?
a: class 1

q: What did this assay record as the result for `CCOP(=O)(CC(F)(F)C(F)(F)F)OCC` ?
a: class 1
